# key: entry, value: clearance
# test-description: Clearance in iv dosed Sprague-Dawley rat
# Assay type: ADME, organism-based
# settings: in vivo
Report as a plain number; the unit mL/min/kg is understood.

Look over these answered cases.
{"structure-string": "N#Cc1ccc(OCC2(O)CCN(S(=O)(=O)c3ccc(Cl)cc3Cl)CC2)cc1F", "clearance / mL/min/kg": 19}
{"structure-string": "N#Cc1ccc(O[C@H]2CN(S(=O)(=O)c3ccc(Cl)cc3Cl)C[C@@]2(O)CO)cc1F", "clearance / mL/min/kg": 58}

Here's the next entry for you.
Fill blank: measured clearance of the compound `N#Cc1ccc(O[C@H]2CN(S(=O)(=O)c3ccc(C(F)(F)F)cc3C#N)C[C@@]2(O)CO)cc1F` is ____. 82
